Items are presented alongside their recorded koff.
- study-target: T1, recombinant huCD30 (R&D) (Homo sapiens, UniProt P28908)
- T1 construct: recombinant human CD30 from R&D; also called rhCD30; huCD30 protein; source: bought: R&D
- T1 sequence (P28908 19-385): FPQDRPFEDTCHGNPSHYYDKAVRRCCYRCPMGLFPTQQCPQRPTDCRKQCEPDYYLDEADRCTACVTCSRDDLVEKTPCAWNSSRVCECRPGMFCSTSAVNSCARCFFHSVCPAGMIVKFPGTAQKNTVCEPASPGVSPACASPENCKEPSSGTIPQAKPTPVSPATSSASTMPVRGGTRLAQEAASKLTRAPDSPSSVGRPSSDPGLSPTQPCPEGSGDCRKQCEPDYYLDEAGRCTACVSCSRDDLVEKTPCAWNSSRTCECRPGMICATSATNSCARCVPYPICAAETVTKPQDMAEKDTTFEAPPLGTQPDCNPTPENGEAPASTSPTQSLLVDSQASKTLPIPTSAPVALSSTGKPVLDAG
- method-summary: SPR; BIAcore 3000, 25°C; recombinant huCD30 amine-coupled on a CM5 chip; mAbs as analyte in serial 1:2 dilutions from 20 nM; 10 mM Hepes pH 7.4, 150 mM NaCl, 0.005% P20, 0.1% BSA; 1:1 Langmuir fit
- settings: both partners purified
Kindly answer with a numeric value in s⁻¹, unit omitted.

Answered cases to consult:
# binder, measured-value
records = [
    ("anti-CD30 mAb 15B8 (antibody, V domains shown, also called clone 15B8; source: mouse hybridoma (custom generated by Genscript), serum-free supernatant, purified (rProtein A GraviTrap)) VH: QVQLEQSGTELVKPGASVKLSCKASGYTFTSYWMHWVKQRPGQGLEWIGNINPSNGGTNYNEKFKSKATLTVDKSSSTAYMQLSSLTSEDSAIYYCARRNNYYASSPFAYWGQGTLVSVSA VL: DIVMTQTPASLSASVGETVTITCRASGNIHNYLAWYQQKQGKSPQLLVYNAKTLADGVPSRFSGSGSGTQYSLKINSLQPEDFGSYYCQHFWSTPFTFGSGTKLEIK", 0.000493),
    ("anti-CD30 mAb 8D10 (antibody, V domains shown, also called clone 8D10; source: mouse hybridoma (custom generated by Genscript), serum-free supernatant, purified (rProtein A GraviTrap)) VH: QVQLQESGTELVKPGASVKLSCKASGYTFTSYWMHWMKQRPGQGLEWIGNINPSNGGTNYNEKFKNKATLTVDKSSSTAYMQLSSLTSEDSAVYYCARRDYYYGSSYGFDVWGTGTTVTVSS VL: DIVMTQSPASQSASLGESVTITCLASQTIGTWLAWYQQKPGKSPQFLIYAATSLADGVPSRFSGSGSGTKFSFKISSLQAEDFVSYYCQQLYSTPFTFGGGTKLEIK", "6e-06"),
    ("anti-CD30 mAb 13H1 (antibody, V domains shown, also called clone 13H1; source: mouse hybridoma (custom generated by Genscript), serum-free supernatant, purified (rProtein A GraviTrap)) VH: QVQLQQSGTELVKPGASVKLSCKASGHTFTSYWMHWVKQRPGQGLEWIGNINPSNGGTNYNEKFKSKATLTVDKSSSTAYMQLSSLTSEDSAVYYCARRGYYGSSSYWSFDVWGTGTTVTVSS VL: DIVMTQTPKSMSMSVGERVTLSCKASENVGTYVSWYQQKPEQSPKVLIYGASNRFTGVPDRFTGSGSATDFTLTISSVQTEDLADYHCGQSYSYPLTFGAGTKLELK", 0.000106),
]

Note: attention shifts to another entry.
Prompt: koff for anti-CD30 mAb 12B1 (antibody, V domains shown, also called clone 12B1; source: mouse hybridoma (custom generated by Genscript), serum-free supernatant, purified (rProtein A GraviTrap)) VH: EVKLEESGTELVKPGASVKLSCKASGYTFTSYWMHWVKQRPGQGLEWIGNINPTNGGTNYNEKFKSKATLTVDKSSRTAYMQLSSLTSGDSAVYYCARRDFITTSGFAYWGQGTLVTVSA VL: DIVMTQTTASLSTSVGETVTITCRASGNLHSYLTWYQQKQGKSPQLLVYNAKTLADGVPSRFSGSGSGTQYSLKIDSLQPEDFGSYYCQHFWTTPFTFGSGTKLEIK ?
Completion: 1.22e-05
